These data points were gathered from the supplement of paper PMC9732359.

Experiment: protein stability index of a GFP-peptide fusion (yeast GPS) (PSI 1-4); higher = more stable; sorted into four equal gates, so the index is relative within each strain
Conditions: doa10∆
protein stability index vs 3: at or above is condition met, below is condition not met.

LTVENKLQFETDRLSTT [SMC1] :: condition met
ENNYKKRLLGTAFKSSP [RPS23A] :: condition not met
FGQKGGQAIVVHPDYLY [FAS2] :: condition not met
DSALRYSILGDRFKYRS [POP4] :: condition met

Determine whether this sequence has protein stability index no lower than 3: QDYYIIGANIYQSPTIF [MED6]
condition not met

Determine whether this sequence has protein stability index no lower than 3: CFPQYVNSKQGAINVAN [NNF1]
condition not met

Determine whether this sequence has protein stability index no lower than 3: FQLVNDVMDELITSSAR [SIR3]
condition met

Determine whether this sequence has protein stability index no lower than 3: AEEAAAEEEEESDDDMG [RPP0]
condition met

Determine whether this sequence has protein stability index no lower than 3: FTGDFLRRVEERFTKSK [FAS1]
condition met

Determine whether this sequence has protein stability index no lower than 3: IMSTEAHVNKVTEETTK [SIR4]
condition not met

Determine whether this sequence has protein stability index no lower than 3: MSGSLKSLDKKIAKRRQ [POP3]
condition met

Determine whether this sequence has protein stability index no lower than 3: DTKDALSTRELAGKVGS [RPC53]
condition not met

Determine whether this sequence has protein stability index no lower than 3: FANNLKSAISNNFRESD [SIR4]
condition not met
